Reference source: ChEMBL document CHEMBL1126675

- Subject Of Test: Purine nucleoside phosphorylase (Bos taurus, UniProt P55859)
- Sequence (P55859 whole entry): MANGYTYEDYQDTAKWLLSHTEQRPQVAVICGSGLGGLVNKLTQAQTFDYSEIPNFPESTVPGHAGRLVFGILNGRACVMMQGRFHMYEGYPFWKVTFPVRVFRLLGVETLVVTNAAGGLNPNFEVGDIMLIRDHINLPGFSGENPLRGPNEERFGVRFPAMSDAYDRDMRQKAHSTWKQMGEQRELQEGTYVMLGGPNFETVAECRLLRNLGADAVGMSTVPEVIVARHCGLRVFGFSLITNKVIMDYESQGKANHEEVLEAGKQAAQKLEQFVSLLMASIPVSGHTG
- Measurement Protocol: Inhibition of purine nucleoside phosphorylase against the enzyme from calf spleen in 1 mM phosphate
So basically: is IC50 under 80 nM? Then 1.0. Not under? Then 0.0.

Nc1nc2c(Cc3cccc(F)c3)c[nH]c2c(=O)[nH]1 = 1.0
Nc1nc(O)c2[nH]cc(Cc3ccco3)c2n1 = 0.0
Nc1nc2c(Cc3cccc(C(F)(F)F)c3)c[nH]c2c(=O)[nH]1 = 1.0
Cc1cccc(Cc2c[nH]c3c(=O)[nH]c(N)nc23)c1 = 1.0
Nc1nc2c(Cc3ccc(Cl)c(Cl)c3)c[nH]c2c(=O)[nH]1 = 1.0
Nc1nc(O)c2[nH]cc(Cc3ccccc3Cl)c2n1 = 0.0
Nc1nc2c(Cc3ccc(I)cc3)c[nH]c2c(=O)[nH]1 = 1.0
Nc1nc(O)c2[nH]cc(Cc3ccsc3)c2n1 = 1.0

Prompt line: Strictly below 80 nM: is that where IC50 of Nc1nc2c(Cc3cccnc3)c[nH]c2c(=O)[nH]1 [PELDESINE] sits?
Response line: 1.0

Prompt line: Threshold test, IC50 < 80 nM: `Nc1nc2c(Cc3cccc(Cl)c3)c[nH]c2c(=O)[nH]1`
Response line: 1.0

Prompt line: Please determine if NC1=NC(=O)C2NC=C(Cc3ccsc3)C2N1 (configuration not stated) is below 80 nM in terms of IC50.
Response line: 1.0

Prompt line: Here's an entry: `Nc1nc(O)c2[nH]cc(Cc3ccc(O)cc3)c2n1` . Is its IC50 below 80 nM?
Response line: 0.0

Prompt line: Here's an entry: `Nc1nc(O)c2[nH]cc(Cc3cc(Cl)cc(Cl)c3Cl)c2n1` . Is its IC50 below 80 nM?
Response line: 0.0

Prompt line: Would you kindly verify if IC50 of `Nc1nc2c(Cc3ccccc3O)c[nH]c2c(=O)[nH]1` is strictly less than 80 nM?
Response line: 0.0

Prompt line: Report whether reported IC50 is lower than 80 nM (strictly) for NC1=NC(=O)C2NC(N)=C(Cc3ccsc3)C2N1 (configuration not stated)
Response line: 1.0

Prompt line: Decide: IC50 of `Nc1nc(O)c2nc(N)n(Cc3cccs3)c2n1` strictly below 80 nM?
Response line: 0.0
